# procedure-summary: Acute toxicity
# Assay type: in vivo, CrJ/CDI female mice
# measurement-context: mouse, in vivo; oral gavage, suspended in 0.1% P-1570, female mice, 21 days observation
# Experimental: Each of testing compounds suspended in 0.1% P-1570 was orally and forcedly dosed through a gastric probe to CrJ/CDI female mice (21 to 22 g, age of about 5 weeks). An identification number was given to each mouse, and a weighing and observation on general behavior were carried out just before the dosage and each day after the same. […] An LD50 was calculated in accordance with the Leed and Munch's method. […]
readout-type: LD50 at 504 h
Report field: quantity (unit follows the number).

Answered examples (5):
- compound: "C[Si](C)(C)CCSCCNC(=O)n1cc(F)c(=O)[nH]c1=O [reference compound]"
  LD50 at 504 h: "1100 mg/kg"
- compound: "C[Si](C)(C)CCCSCCCNC(=O)n1cc(F)c(=O)[nH]c1=O [Example 10]"
  LD50 at 504 h: "2170 mg/kg"
- compound: "CC[Si](CC)(CC)CCSCCNC(=O)n1cc(F)c(=O)[nH]c1=O [Example 2]"
  LD50 at 504 h: "1540 mg/kg"
- compound: "C[Si](C)(C)CCSCCCNC(=O)n1cc(F)c(=O)[nH]c1=O [Example 8]"
  LD50 at 504 h: "1360 mg/kg"
- compound: "C[Si](C)(C)CCCSCCNC(=O)n1cc(F)c(=O)[nH]c1=O [Example 1]"
  LD50 at 504 h: "1580 mg/kg"

Proceeding to the next compound to report its LD50 at 504 h.
Documented LD50 at 504 h of C[Si](C)(CCSCCNC(=O)n1cc(F)c(=O)[nH]c1=O)c1ccccc1 [Example 3] : 1500 mg/kg
